Data origin: patent US20210300936A1

# assay target: human adenosine receptor A2A (A2AR) (Homo sapiens, UniProt P29274)
# Sequence (P29274 whole entry): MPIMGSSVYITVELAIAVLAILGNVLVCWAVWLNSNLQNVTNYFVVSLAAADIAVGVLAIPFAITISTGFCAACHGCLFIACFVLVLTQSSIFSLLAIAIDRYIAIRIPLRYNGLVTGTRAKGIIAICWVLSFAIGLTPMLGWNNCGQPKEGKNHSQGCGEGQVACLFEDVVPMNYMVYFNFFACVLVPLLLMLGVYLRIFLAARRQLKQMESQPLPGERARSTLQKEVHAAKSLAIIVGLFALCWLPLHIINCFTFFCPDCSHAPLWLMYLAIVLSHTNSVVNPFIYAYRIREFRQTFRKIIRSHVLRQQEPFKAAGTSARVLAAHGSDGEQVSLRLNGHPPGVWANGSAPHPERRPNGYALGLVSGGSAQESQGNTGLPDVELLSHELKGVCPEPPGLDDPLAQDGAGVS
measured quantity: Ki (nM)

The examples below pair each entry with its known result.
COCCOc1ccc(N2CCN(C(=O)C(c3ccccc3F)n3ncc4c3nc(N)n3nc(-c5ccco5)nc43)CC2)cc1 (single isomer, unassigned) [Compound A43b] = 1.2
CCCC(C(=O)N1CCN(c2ccc(OCCN(C)C)cc2)CC1)n1ncc2c1nc(N)n1nc(-c3ccco3)nc21 (single isomer, unassigned) [Compound A39b] = 2

a. CCCC(C(=O)N1CCN(c2ccc(OCCOC)cc2F)CC1)n1ncc2c1nc(N)n1nc(-c3ccco3)nc21 (single isomer, unassigned) [Compound A24b]
b. COCCOc1ccc(N2CCN(C(=O)Cn3ncc4c3nc(N)n3nc(-c5ccco5)nc43)CC2)cc1 [Compound D1]
c. COCCOc1ccc(N2CCN(C(=O)Cn3cc4c(nc(N)n5nc(-c6ccco6)nc45)n3)CC2)cc1 [Compound D2]
d. CCCCC(C(=O)N1CCN(c2ccc(OCCOC)cc2)CC1)n1ncc2c1nc(N)n1nc(-c3ccco3)nc21 (single isomer, unassigned) [Compound A10b]
e. COCCOc1ccc(N2CCN(C(=O)C(c3ccccc3)n3ncc4c3nc(N)n3nc(-c5ccco5)nc43)CC2)cc1 (single isomer, unassigned) [Compound A13b]
I would appreciate it if you could sort these 5 compounds by Ki, starting from the smallest number. // list labels; follow requested order
e, b, c, d, a
(e: 0.92 nM, b: 1.8 nM, c: 2.8 nM, d: 5.6 nM, a: 8.5 nM)

a. COCCOc1ccc(N2CCN(C(=O)C(CC(C)C)n3ncc4c3nc(N)n3nc(-c5ccco5)nc43)CC2)cc1 (single isomer, unassigned) [Compound A16a]
b. COCCOc1ccc(N2CCN(C(=O)C(C)n3cc4c(nc(N)n5nc(-c6ccco6)nc45)n3)CC2)cc1 (single isomer, unassigned) [Compound C1a]
c. COCCOc1ccc(N2CCN(C(=O)[C@](C)(c3ccccc3)n3ncc4c3nc(N)n3nc(-c5ccco5)nc43)CC2)cc1 [Compound A63a]
Let's sort these by Ki, smallest first. Go ahead? Provide the ranking by listing each label in its place in the requested order.
a, c, b
